Hey, just so you know, these numbers are from paper PMC4191598.

Target: human TLR7 (Homo sapiens, UniProt Q9NYK1)
Sequence (Q9NYK1 27-1049): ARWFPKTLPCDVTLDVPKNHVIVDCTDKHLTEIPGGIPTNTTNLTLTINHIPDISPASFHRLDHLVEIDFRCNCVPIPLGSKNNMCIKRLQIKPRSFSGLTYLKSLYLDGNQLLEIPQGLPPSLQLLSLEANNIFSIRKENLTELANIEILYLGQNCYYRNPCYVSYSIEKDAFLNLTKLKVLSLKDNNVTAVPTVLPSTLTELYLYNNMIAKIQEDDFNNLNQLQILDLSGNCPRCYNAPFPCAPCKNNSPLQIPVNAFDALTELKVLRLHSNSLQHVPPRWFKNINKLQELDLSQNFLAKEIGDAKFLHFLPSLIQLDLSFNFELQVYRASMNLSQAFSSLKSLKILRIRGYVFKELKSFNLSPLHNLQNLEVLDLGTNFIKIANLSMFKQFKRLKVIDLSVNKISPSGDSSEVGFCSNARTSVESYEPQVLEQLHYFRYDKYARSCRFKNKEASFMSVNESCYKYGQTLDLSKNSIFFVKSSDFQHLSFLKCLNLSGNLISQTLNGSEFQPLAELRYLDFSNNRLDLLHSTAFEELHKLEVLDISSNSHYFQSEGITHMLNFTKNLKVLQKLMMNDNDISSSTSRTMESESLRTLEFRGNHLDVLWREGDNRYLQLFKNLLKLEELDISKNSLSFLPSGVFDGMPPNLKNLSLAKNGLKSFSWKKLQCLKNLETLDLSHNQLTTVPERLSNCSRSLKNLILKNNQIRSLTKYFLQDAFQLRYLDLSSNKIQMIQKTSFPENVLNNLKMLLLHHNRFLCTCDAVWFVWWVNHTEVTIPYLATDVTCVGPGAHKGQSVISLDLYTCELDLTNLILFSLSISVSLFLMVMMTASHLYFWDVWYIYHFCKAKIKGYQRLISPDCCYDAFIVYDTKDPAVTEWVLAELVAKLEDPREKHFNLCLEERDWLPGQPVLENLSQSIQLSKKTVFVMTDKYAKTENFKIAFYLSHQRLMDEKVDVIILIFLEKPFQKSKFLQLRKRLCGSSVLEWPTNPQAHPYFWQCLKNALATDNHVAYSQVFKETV
Experiment: Human TLR7 reporter gene assay
pEC50: −log10 of the molar value.

cpd.smiles: CCCNc1nc2c(N)nc3ccccc3c2s1
pEC50: 6.14

----------
Target: UniProt:Q9NYK1
Assay: Human TLR7 reporter gene assay
Format: cell-based
Conditions: TLR7 reporter gene assay

molecule: CCCCc1nc2c3ccccc3nc(N)n2n1 [Compound 33]
TLR7-agonistic activity (in words): inactive
//
molecule: CCC(=O)Nc1nc2c(N)nc3ccccc3c2s1 [Compound 16]
TLR7-agonistic activity (in words): inactive

----------
Biological target: human TLR8 (Homo sapiens)
Sequence (Q9NR97 27-1041): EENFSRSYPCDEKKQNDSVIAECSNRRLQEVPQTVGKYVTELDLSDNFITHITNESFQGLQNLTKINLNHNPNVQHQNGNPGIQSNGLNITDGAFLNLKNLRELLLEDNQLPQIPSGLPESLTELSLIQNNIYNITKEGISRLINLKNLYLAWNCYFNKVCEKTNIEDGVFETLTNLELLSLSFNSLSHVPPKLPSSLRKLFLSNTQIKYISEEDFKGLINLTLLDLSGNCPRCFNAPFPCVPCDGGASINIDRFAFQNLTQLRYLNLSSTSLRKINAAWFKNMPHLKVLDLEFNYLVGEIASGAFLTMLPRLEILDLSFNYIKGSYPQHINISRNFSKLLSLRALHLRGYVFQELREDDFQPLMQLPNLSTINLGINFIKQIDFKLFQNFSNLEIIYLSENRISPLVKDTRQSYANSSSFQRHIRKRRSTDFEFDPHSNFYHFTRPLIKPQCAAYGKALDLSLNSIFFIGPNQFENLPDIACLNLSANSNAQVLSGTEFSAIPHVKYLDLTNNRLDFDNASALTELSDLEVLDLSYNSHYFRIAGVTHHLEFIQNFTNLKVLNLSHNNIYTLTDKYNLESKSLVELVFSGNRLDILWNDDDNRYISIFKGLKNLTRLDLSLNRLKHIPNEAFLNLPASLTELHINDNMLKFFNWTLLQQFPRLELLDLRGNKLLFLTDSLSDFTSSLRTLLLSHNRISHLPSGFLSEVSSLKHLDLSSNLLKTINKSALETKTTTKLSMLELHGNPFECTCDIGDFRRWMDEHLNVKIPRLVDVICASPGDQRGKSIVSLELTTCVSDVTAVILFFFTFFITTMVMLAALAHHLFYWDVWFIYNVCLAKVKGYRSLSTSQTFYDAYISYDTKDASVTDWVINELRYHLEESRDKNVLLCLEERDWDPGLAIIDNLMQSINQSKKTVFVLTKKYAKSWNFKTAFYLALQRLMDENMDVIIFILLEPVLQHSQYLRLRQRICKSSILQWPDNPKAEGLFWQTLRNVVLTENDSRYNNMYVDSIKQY
Experiment: Human TLR8 reporter gene assay
Type: cell-based
Details: TLR8 reporter gene assay
quantity.kind: TLR8-agonistic activity (in words)

compound: Nc1nc2c(N)nc3ccccc3c2s1 [Compound 17, thiazolo[4,5-c]quinoline-2,4-diamine]
test.system: human TLR8 (Homo sapiens)
quantity.kind: TLR8-agonistic activity (in words)
reading: inactive

compound: CCCCC1CN2C(N)=Nc3ccccc3C2=N1 (stereo not shown)
test.system: human TLR8 (Homo sapiens)
quantity.kind: TLR8-agonistic activity (in words)
reading: entirely inactive

compound: CCCCc1nc2c3ccccc3nc(N)n2n1
test.system: human TLR8 (Homo sapiens)
quantity.kind: TLR8-agonistic activity (in words)
reading: inactive

compound: CCCCc1cn2c(N)nc3ccccc3c2n1 [Compound 29, 2-Butylimidazo[1,2-c]quinazolin-5-amine]
test.system: human TLR8 (Homo sapiens)
quantity.kind: TLR8-agonistic activity (in words)
reading: entirely inactive

compound: CCC(=O)Nc1nc2c(N)nc3ccccc3c2s1
test.system: human TLR8 (Homo sapiens)
quantity.kind: TLR8-agonistic activity (in words)
reading: inactive
